Biological target: Fructose-1,6-bisphosphatase 1 (Homo sapiens)
Sequence (P09467 whole entry): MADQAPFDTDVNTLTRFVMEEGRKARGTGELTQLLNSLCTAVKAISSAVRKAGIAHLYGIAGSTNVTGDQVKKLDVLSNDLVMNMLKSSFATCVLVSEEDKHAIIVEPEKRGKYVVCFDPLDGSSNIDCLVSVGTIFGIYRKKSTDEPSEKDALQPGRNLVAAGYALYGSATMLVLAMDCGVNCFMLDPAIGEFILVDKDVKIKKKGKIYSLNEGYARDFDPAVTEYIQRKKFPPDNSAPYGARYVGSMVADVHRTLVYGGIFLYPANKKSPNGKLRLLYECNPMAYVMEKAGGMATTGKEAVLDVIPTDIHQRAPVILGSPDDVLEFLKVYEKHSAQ
pIC50: −log10 of the molar value.
METRIC NAME: pIC50

Worked cases, pIC50 given:
O=S(=O)(Nc1nc2cc(Cl)ccc2o1)c1cccc(-c2ccccc2)c1; 5.01
Cc1ccc2nc(NS(=O)(=O)c3cc(Cl)ccc3Cl)oc2c1; 5.00

a. CCCC(=O)Nc1ccc(S(=O)(=O)Nc2nc3cc(Cl)ccc3o2)cc1
b. O=S(=O)(Nc1nc2cc(Cl)ccc2o1)c1cccc(Cl)c1
c. O=S(=O)(Nc1nc2cc(Cl)ccc2o1)c1ccc2ccccc2c1
## Input Sort these compounds on pIC50 so the largest reading comes first. To answer, write out the labels according to the requested order.
## Output b, c, a

* * *

Target: Fructose-1,6-bisphosphatase 1 (Homo sapiens)
Sequence (P09467 whole entry): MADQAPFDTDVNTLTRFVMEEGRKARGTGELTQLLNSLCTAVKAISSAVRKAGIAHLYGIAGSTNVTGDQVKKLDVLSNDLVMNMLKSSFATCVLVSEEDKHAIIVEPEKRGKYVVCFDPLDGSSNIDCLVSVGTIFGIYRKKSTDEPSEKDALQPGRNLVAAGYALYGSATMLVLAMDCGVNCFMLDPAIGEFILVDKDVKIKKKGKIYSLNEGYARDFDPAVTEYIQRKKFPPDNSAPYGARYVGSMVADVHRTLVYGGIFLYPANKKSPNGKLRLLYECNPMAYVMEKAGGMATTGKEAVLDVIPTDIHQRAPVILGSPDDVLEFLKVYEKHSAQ
METRIC NAME: IC50 (µM)

Some entries whose results are on file:
CC(C)(C)c1ccc(S(=O)(=O)Nc2nc3cc(Cl)ccc3o2)cc1; 24
O=S(=O)(Nc1nc2cc(Cl)ccc2o1)c1ccc(OC(F)(F)F)cc1; 7.8
COc1ccc2nc(NS(=O)(=O)c3cc(Cl)ccc3Cl)oc2c1; 8
O=[N+]([O-])c1cccc(S(=O)(=O)Nc2nc3cc(Cl)ccc3o2)c1; 1.8

1. CC(C)(C)c1ccc2oc(NS(=O)(=O)c3cc(Cl)ccc3Cl)nc2c1
2. O=S(=O)(Nc1nc2cc(Cl)ccc2o1)c1ccc(-c2ccccc2)cc1
## Input Parameter metric = IC50. Return the lower-valued option from 1 and 2 . Please respond with the label that marks your chosen entry.
## Output 2
(2: 4 µM, 1: 32 µM)

* * *

Data export: IC50 values recorded with Fructose-1,6-bisphosphatase 1 (Homo sapiens).
METRIC NAME: IC50 (µM)

COc1cc(-c2ccc(O)cc2)c2oc(NS(=O)(=O)c3cc(Cl)ccc3Cl)nc2c1; 1.8

A. O=S(=O)(Nc1nc2cc(Cl)ccc2o1)c1ccccc1
B. COc1cc(-c2cccc(O)c2)c2oc(NS(=O)(=O)c3cc(Cl)ccc3Cl)nc2c1
C. O=S(=O)(Nc1nc2cc(Cl)ccc2o1)c1ccccc1-n1ccnc1
## Input Number of compounds to sort: 3. Sort criterion: IC50, ascending. Put the labels in the requested order and list them out.
## Output B, A, C

Sourced from ChEMBL document CHEMBL1146130
